- System: SK-MEL-28 melanoma
- test_description: NCI tumour cell line growth inhibition, 48 h
observable: TGI

Completed entries (count: 2):
COC1CCC(n2c([C@@H]3CCCC(=O)N3c3ccc(F)c(F)c3)nc3cc(-c4c(C)noc4C)ccc32)CC1 (stereo partly specified); 28.1 µM
COc1ccc(N2C(=O)C3c4[nH]c5ccccc5c4C4CCC(C(C)(C)C)CC4C3C2=O)cc1OC (stereo unspecified); > 100 µM

Alright, here's another molecule for you.
q: Sample COC(=O)[C@]12CC[C@@H](C)[C@H](C)[C@@H]1C1=CC[C@@H]3[C@@]4(C)C=C(O)C(=O)C(C)=C4CC[C@@]3(C)[C@]1(C)CC2 — what was its TGI?
a: 34 µM

###

GI50 overview
- System: BT-549 breast
- test_description: NCI tumour cell line growth inhibition, 48 h

Completed entries (count: 4):
C=C(C(=O)OC)[C@@H]1C[C@@H](O)[C@]2(C)CC/C=C(\C)CCC[C@H](C)[C@H](O)C1O2; 29.5 µM
O=C(Nc1ccccc1F)c1ccc(NC2=C(Cl)C(=O)N(Cc3ccccc3)C2=O)cc1; 3.13 µM
Clc1ccc(-c2cn(-c3ccccc3)c(-c3ccccc3)n2)c(Cl)c1; 3.42 µM
COc1ccc2sc3c(NCCCNCCO)nc4ccccc4c3c(=O)c2c1; 10.2 µM

Alright, here's another compound for you.
q: Sample CC1(C)CC[C@]2(C(=O)O)CC[C@]3(C)[C@H](CC[C@@H]4[C@@]5(C)CCC(=O)C(C)(C)[C@@H]5CC[C@]43C)[C@H]2[C@H]1OC(=O)C(F)(F)F — what was its GI50?
a: 9.3 µM

###

- System: UO-31 renal
- test_description: NCI tumour cell line growth inhibition, 48 h
observable: TGI (µM)
Reply numerically in µM, unit not repeated.

Completed entries (count: 2):
CC(C)(C)n1cc(-c2ccnc(NCCNS(=O)(=O)c3cccc4ccccc34)c2)c(-c2cccc(F)c2)n1; 59.8
Cc1nn(C)c(=S)n(C)c1=O; 0.753

q: Sample COc1c(Cl)c(Cl)c(OC)c2c1C(=O)C=CC2=O — what was its TGI?
a: 31.7

q: Now this one: C1C[OH+]CC[OH+]CC[OH+]CC[OH+]CC[OH+]CC[OH+]1.[Cl-].[Ta+5]
a: 30.3

q: Now this one: Oc1ccc(SCc2ccc(NCc3ccccc3)cc2)cc1
a: 56.5

q: Now this one: Clc1cccc(N=C/C=C/Nc2cccc(Cl)c2)c1
a: 34.2

q: Now this one: O=C1CC(Cl)c2c(Cl)sc(Cl)c21 (stereo unspecified)
a: 3.67

###

GI50 overview
- System: TK-10 renal
- test_description: NCI tumour cell line growth inhibition, 48 h

Completed entries (count: 3):
COC(=O)[C@]12CC[C@@H](C)[C@H](C)[C@@H]1C1=CC[C@@H]3[C@@]4(C)C=C(O)C(=O)C(C)=C4CC[C@@]3(C)[C@]1(C)CC2; 18.2 µM
COc1cccc(C2C(C#N)=C(N)Oc3cc(OC)ccc32)c1 (centres undefined); 11.8 µM
CC(=O)OC1=C2C(CC3C4CC=C5CC(OC(C)=O)CCC5(C)C4CCC23C)C2C(=O)N(Cc3ccccc3)C(=O)C2C1 (centres undefined); 47.4 µM

q: Sample COc1cc2c3c(n(C)c(=O)c2cc1OC)-c1cc2c(cc1/C3=C\[C@@H](N)CCCCN)OCO2 — what was its GI50?
a: 7.12 µM

q: Now this one: CCOC(=O)c1cnc2c(cnn2CC)c1NN=C(C)C
a: 27.1 µM

q: Now this one: CCCCC#Cc1cccc(=O)o1
a: > 100 µM

q: Now this one: C=CCNc1cccc2c1C(=O)c1ccccc1C2(O)CC=C (centres undefined)
a: 25.2 µM

q: Now this one: CC(C)(C)c1nnc2n(c1=O)N=CC(c1ccc(Br)cc1)S2 (centres undefined)
a: 34.7 µM

q: Now this one: CC(C)(C)n1cc(-c2ccnc(NCCNS(=O)(=O)c3cccc4ccccc34)c2)c(-c2cccc(F)c2)n1
a: 18.3 µM

###

- System: OVCAR-3 ovarian
- test_description: NCI tumour cell line growth inhibition, 48 h
observable: TGI

O=C1CC(c2c[nH]c3ccccc23)C(=O)N1c1ccccc1 (configuration not stated); > 100 µM

q: Sample COc1cc(C)cc(OC)c1/C=C/C(=O)O — what was its TGI?
a: 87.6 µM

q: Now this one: CCOC(=O)O/N=C1/C(c2c(O)[nH]c3ccccc23)=Nc2ccccc21
a: 8 µM

q: Now this one: Cc1nn(C(=O)c2ccc(Cl)cc2)c2c1C(c1ccco1)SC(N)=N2 (configuration not stated)
a: > 10 µM

q: Now this one: O=C1C=C(NCCc2cc(Br)c(O)c(Br)c2)C(=O)c2[nH]cnc21
a: > 100 µM

###

TGI overview
- Test system: SK-OV-3 ovarian
- test_description: NCI tumour cell line growth inhibition, 48 h

Completed entries (count: 2):
COc1c(Cl)c(Cl)c(OC)c2c1C(=O)C=CC2=O; > 100 µM
CCCCCCCCCC(=O)N[C@H]1CCc2cc(OC)c(OC)c(OC)c2-c2ccc(SC)c(=O)cc21; 0.0678 µM

q: Could you share what TGI was measured for O=C(CC(=O)c1ccccc1NC1=Cc2ccccc2C(=O)C1=O)C(=O)NC1=C(Cl)C(=O)c2ccccc2C1=O , tested on SK-OV-3 ovarian?
a: > 83.8 µM

q: Now this one: Clc1ccc(Nc2nc3ccccc3c3occc23)cc1
a: 16 µM

q: Now this one: CC(CN(C)C)C(=O)/C=C/c1ccc(Cl)c(Cl)c1 (stereo unspecified)
a: 17.5 µM

q: Now this one: C#CC#CC#CC#CC#CC#CC#CC#CCC1OC[C@H](COC(=O)O[C@@H](C(=O)O[C@H]2C[C@@]3(O)[C@@H](OC(=O)c4ccccc4)[C@@H]4[C@]5(OC(C)=O)CO[C@@H]5C[C@H](O)[C@@]4(C)C(=O)[C@H](OC(C)=O)C(=C2C)C3(C)C)[C@@H](NC(=O)c2ccccc2)c2ccccc2)O1 (stereo partly specified)
a: > 33.3 µM

q: Now this one: O=C1CC(Cl)c2c(Cl)sc(Cl)c21 (stereo unspecified)
a: 33.3 µM

q: Now this one: O=C1CC(c2c[nH]c3ccccc23)C(=O)N1c1ccccc1 (stereo unspecified)
a: > 100 µM

q: Now this one: COc1cnnc2c(C)c(-c3ccccc3)nn12
a: > 100 µM

q: Now this one: NC(CNc1ccc(O)cc1)C(=O)O (stereo unspecified)
a: > 100 µM

q: Now this one: NC(=S)N/N=C(\C(=O)Nc1ccc(Cl)c(Cl)c1)C1=NN(c2ccccc2)C(c2cccc([N+](=O)[O-])c2)CC1=O (stereo unspecified)
a: > 100 µM

q: Now this one: CCOC(=O)CCC(NC(=O)c1ccc(NCc2ccc3nc(-c4ccccc4)c(Cl)nc3c2)c2ccccc12)C(=O)OCC (stereo unspecified)
a: > 100 µM

q: Now this one: C=C(C(=O)OC)[C@@H]1C[C@@H](O)[C@]2(C)CC/C=C(\C)CCC[C@H](C)[C@H](O)C1O2
a: > 100 µM

q: Now this one: Cc1ccccc1NC(=O)c1sc2nc3c(cc2c1N)C(=O)CCC3
a: > 100 µM

q: Now this one: Cn1c(=O)c2[nH]c(-n3nc(-c4ccccc4)cc3N)nc2n(C)c1=O
a: 20.4 µM

q: Now this one: CC(C)(C)n1cc(-c2ccnc(NCCNS(=O)(=O)c3cccc4ccccc34)c2)c(-c2cccc(F)c2)n1
a: > 100 µM

q: Now this one: COc1cc(/C=C/C(=O)c2cc(OC)c(OC)c(OC)c2)cc(OC)c1OC
a: > 100 µM

q: Now this one: Cn1cnc([N+](=O)[O-])c1Sc1nnc(C(F)(F)F)n1C
a: > 100 µM

q: Now this one: O=[N+]([O-])c1cc(Cl)ccc1S(=O)(=O)c1cc(Cl)cc2c1NCCC2
a: > 100 µM

q: Now this one: Cc1oc2c(C)c3oc(=O)cc(C)c3cc2c1CN
a: 79.2 µM

q: Now this one: O=c1cc2cc(O)[nH]c(=O)c2c(O)[nH]1
a: > 100 µM

q: Now this one: CC(C)(CN1CCCCC1)C(=O)/C=C/c1c(Cl)cccc1Cl
a: 8.47 µM

q: Now this one: Cc1csc2n(C)c(=O)c3ccccc3[n+]12
a: > 100 µM

q: Now this one: COc1cc(/C=C2\CCc3ccccc3C2=O)cc(OC)c1OC
a: 35.5 µM

###

TGI overview
- Tested on: NCI-H23 lung
- test_description: NCI tumour cell line growth inhibition, 48 h

Completed entries (count: 2):
COc1ccc(/C=C/C(C(=O)O)C(=O)O)cc1; > 100 µM
COc1cc(C(CC(OC)OC)=C(C#N)C#N)cc(OC)c1OC; > 100 µM

q: Sample CC12CCC(O)CC1CCC1C2CCC2(C)C(C3=CC(=O)OC3)CCC12 (stereo unspecified) — what was its TGI?
a: > 64.6 µM

q: Now this one: COc1ccc(/C=C/C(c2cc(OC)c(OC)c(OC)c2)n2cncn2)cc1O (stereo unspecified)
a: > 100 µM

q: Now this one: Clc1ccc(-c2nn3c(C45CC6CC(CC(C6)C4)C5)nnc3s2)cc1
a: > 100 µM

q: Now this one: OCCNc1nc2c(N3CCCC3)nc(N3CCNCC3)nc2nc1NCc1ccccc1
a: 34.2 µM
